# credit: the RNAGym collection of RNA variant scans (doi:10.7554/elife.90254)

B1: OR4K15 (parent)
chain: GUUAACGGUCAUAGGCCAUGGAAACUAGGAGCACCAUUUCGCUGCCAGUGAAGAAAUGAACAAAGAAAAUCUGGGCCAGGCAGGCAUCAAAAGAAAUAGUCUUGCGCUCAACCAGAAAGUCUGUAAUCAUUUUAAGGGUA

# Variants of: B1
# protocol_details: self-cleavage, relative activity (ratio to wild type); higher = more cleavage; in vitro, sequencing; the parent is a self-cleaving ribozyme
endpoint_label: self-cleavage

> print(dat)
    mutant.code  result.number
 1   A60G A140U           1.06
 2  A111U A114U           0.02
 3    U57C A62G            0.7
 4         C42A           0.45
 5   A78G A117G           0.22
 6   G28U A111U            0.3
 7   A82G U120C           0.11
 8   C42A U120A            1.7
 9    A82G A96G           0.59
10    U49G A66G           1.77
11    U57C C88U           1.04
12    A47G A98U           0.85
13   A13G C105A           0.15
14  A110C U131A           0.17
15    C10U A91G           0.68
16    A64G A66C           1.17
17   G48A U124A           0.41
18    A13U A90U            1.8
19    U87G A90G           0.82
20   A54G A110C            0.2
21  U102A U108C              0
22    A27U A30G           0.38
23    A64U A67G           1.32
24    A11G U12A           1.21
25   A22G A126G           0.85
26   A91G G104A           0.02
27    U38A U43C            1.3
28    A66G U97C           1.98
29     U3C C25U           1.05
30    U43C A47G           0.98
31    A13G G80A           0.43
32  A114C U122G           0.01
33    U39C A66G           0.08
34    U38C C45U           1.23
35    U26C A63G           1.48
36     C6U A27G           2.16
37    C88A A94G            1.5
38   G74U C121A           0.36
39    A13G A78U            0.6
40   A33U A116G           1.55
41    A30U U72C           0.27
42  C101A U124C           0.08
43    A18U A55U           1.49
44   A23U G136A           0.85
45    A30U U49A            1.3
46  A129G U139C           0.85
